test system: SF-539 CNS; test: NCI-60 one-dose screen, 48 h; settings: 10 µM unless noted
The panel holds about 83,000 compounds, 20% with a hit somewhere; the sample as a whole holds those more often. The source made the active and inactive calls. How the source made its calls: active means growth percent below 10; inactive means the rest.
Field 'call' accepts active, inactive

Just curious, what result did COc1ccc2c(O)c(/C=C3\N=Nc4ncccc43)oc2c1C[C@H]1CCNC[C@H]1F get here?
active

Just curious, what result did O=C(CSc1nnc2n1S(=O)(=O)c1ccccc1N2c1ccccc1)Nc1nc2ccc(F)cc2s1 get here?
inactive

Just curious, what result did CC(=O)Cc1nsc(NC(=O)c2cc(-c3cc(Cl)cc(Cl)c3)oc2C)n1 get here?
inactive

Just curious, what result did O=C(Nc1cccc([N+](=O)[O-])c1)c1cc2ccccc2cc1O get here?
active

Just curious, what result did O=c1c2cc(-c3ccccc3)sc2nc2sc(-c3ccccc3)nn12 get here?
inactive

Just curious, what result did COc1ccccc1Nc1nc2c(s1)C1=CC[C@H]3[C@@H]4CC[C@H]([C@H](C)CCCC(C)C)[C@@]4(C)CC[C@@H]3[C@@]1(C)CC2 get here?
inactive

Just curious, what result did C[C@]12C=CC(=O)C=C1CCC1C2[C@@H](O)C[C@@]2(C)C1CC[C@]2(O)C(=O)COC(=O)CCC(=O)O (stereo not given in full) get here?
inactive

Just curious, what result did Cc1ccccc1NC(=O)c1sc2nc(C)c(C(=O)/C=C/c3ccccc3)cc2c1N get here?
active

Just curious, what result did COc1ccccc1NC(=O)Cn1cc(CN2CCN(c3ccnc4cc(Cl)ccc34)CC2)nn1 get here?
inactive

Just curious, what result did CN(CCOc1ccc(C#N)cc1)CCOc1ccc(C#N)cc1 get here?
inactive

Just curious, what result did CC(O)c1cnc(/C=C2\SC(=S)N(Cc3ccccc3)C2=O)s1 (stereo not given) get here?
inactive

Just curious, what result did CCOC(=O)C1=NN(c2ccccc2)C(=O)/C1=C\N1C(=O)CC(=O)NC1=S get here?
inactive

Just curious, what result did CN(C)CCCC1(c2ccc(F)cc2)OCc2cc(-c3cccc4[nH]ccc34)ccc21 (stereo not given) get here?
inactive

Just curious, what result did O=C1c2cccnc2C(=O)c2c1c(C(=O)NCCn1ccnc1)c1ccccn21 get here?
active

Just curious, what result did Cc1cc2c([nH]1)CSc1cc(S(=O)(=O)c3ccccc3)c(=O)[nH]c1-2 get here?
active

Just curious, what result did CN(C)c1ccc(Nc2cc(-c3cccc(OC(F)(F)F)c3)nc3ccc(N4CCCC4)cc23)cc1 get here?
inactive

Just curious, what result did COc1ccc(C2c3sc4c(F)cccc4c3Oc3nc[nH]c(=O)c32)cc1 (stereo not given) get here?
inactive

Just curious, what result did CCn1c(=S)[nH]c2c(=O)n(C)c(=O)n(C)c21 get here?
inactive

Just curious, what result did COc1ccc(-c2csc(N(C(=O)N3CCN(c4cc5c(cc4F)c(=O)c(C(=O)O)cn5C4CC4)CC3)c3ccccc3)n2)cc1 get here?
active

Just curious, what result did COc1cc2c(c(OC)c1OC)-c1ccc(OC)c(=O)cc1[C@@H](NC(=O)CCl)CC2 get here?
active
